- tested system: recombinant sEH (Homo sapiens)
- Sequence (P34913 1-555): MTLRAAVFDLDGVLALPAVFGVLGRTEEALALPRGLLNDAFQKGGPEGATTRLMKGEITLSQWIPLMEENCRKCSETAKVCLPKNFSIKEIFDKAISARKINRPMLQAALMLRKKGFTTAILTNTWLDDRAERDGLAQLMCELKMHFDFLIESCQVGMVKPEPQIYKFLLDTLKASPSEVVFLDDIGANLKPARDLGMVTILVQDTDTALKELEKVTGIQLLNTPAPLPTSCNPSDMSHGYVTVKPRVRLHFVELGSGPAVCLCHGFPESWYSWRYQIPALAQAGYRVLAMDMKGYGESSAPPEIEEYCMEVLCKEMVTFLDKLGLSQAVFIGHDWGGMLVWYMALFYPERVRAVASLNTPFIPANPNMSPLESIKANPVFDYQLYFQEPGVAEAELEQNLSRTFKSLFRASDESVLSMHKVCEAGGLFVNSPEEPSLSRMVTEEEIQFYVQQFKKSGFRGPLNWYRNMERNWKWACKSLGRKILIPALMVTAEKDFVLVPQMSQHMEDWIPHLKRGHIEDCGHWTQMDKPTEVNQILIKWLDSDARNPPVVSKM
- protocol: biochemical screening assay for inhibition of soluble epoxide hydrolase (fluorometric, Phome substrate)
# IC50 values compiled below
parameter: IC50 (nM)

| molecule | reported measurement |
| --- | --- |
| O=C(NC1CCCCC1)N[C@H]1CO[C@H]2[C@@H]1OC[C@@H]2Oc1ccc(Oc2ccccn2)cc1 | 1 |
| O=C(NCc1ccc(F)cc1)NC1COC2C(CCc3ccsc3)COC12 (stereo not shown) | 29 |
| Cc1cc(Cl)ncc1O[C@H]1CO[C@H]2[C@@H]1OC[C@@H]2NC(=O)NC1CCCCC1 | 2 |
| Cc1ncccc1OC1COC2C(NC(=O)NC3CCCN(C(=O)C(C)C)C3)COC12 (stereo not shown) | 59 |
| Cc1ncccc1O[C@H]1CO[C@H]2[C@@H]1OC[C@@H]2NC(=O)NCCN1CCCC1=O | 3840 |
| O=C(NC1CCCCC1)N[C@H]1CO[C@H]2[C@@H]1OC[C@@H]2Oc1cncnc1 | 42 |
| CCOC(=O)c1cccc(O[C@H]2CO[C@H]3[C@@H]2OC[C@@H]3NC(=O)NC2CCCCC2)c1 | 2 |
| CCc1nc(C)ccc1O[C@H]1CO[C@H]2[C@@H]1OC[C@@H]2NC(=O)NC1CCCCC1 | 1 |
| Cc1nc(-c2ccccc2O[C@H]2CO[C@H]3[C@@H]2OC[C@@H]3NC(=O)NC2CCCCC2)cs1 | 2 |
| Cc1ncccc1O[C@H]1CO[C@H]2[C@@H]1OC[C@@H]2NC(=O)NC1CCCC(C)C1 (stereo partly shown) | 2 |
| O=C(Nc1ccc2c(c1)OCCO2)N[C@H]1CO[C@@H]2[C@@H](CCc3ccccc3)CO[C@@H]21 | 22 |
| N#CC1COC2C(NC(=O)Nc3ccc(Cl)c(Cl)c3)COC12 (stereo not shown) | 61 |
| Cc1ncccc1O[C@H]1CO[C@H]2[C@@H]1OC[C@@H]2NC(=O)NC(C)(C)c1ccc(F)cc1 | 734 |
| O=C(NC1CCCCC1)N[C@H]1CO[C@H]2[C@@H]1OC[C@@H]2Oc1ccccc1-c1ccccc1 | 1 |
| Cc1ncccc1O[C@H]1CO[C@H]2[C@@H]1OC[C@@H]2NC(=O)NCCOC(C)(C)C | 371 |
| O=C(Nc1cccc(F)c1)N[C@H]1CO[C@H]2[C@@H]1OC[C@@H]2/C=C\c1ccccc1 | 95 |

* * *

# pIC50 values compiled below
- tested system: recombinant sEH (Homo sapiens)
- protocol: biochemical screening assay for inhibition of soluble epoxide hydrolase (fluorometric, Phome substrate)
pIC50: −log10 of the molar value. Where a name gives a salt, the structure may show the parent alone.
parameter: pIC50

| compound | reported measurement |
| --- | --- |
| O=C(NC1CCCCC1)N[C@H]1CO[C@H]2[C@@H]1OC[C@@H]2Oc1cccc2ccc(N3CCCC3)nc12 [Example 137, trifluoroacetate] | 8.40 |
| O=C(NC1CCCCC1)N(Cc1ccccc1)[C@H]1CO[C@@H]2[C@@H](CO)CO[C@@H]21 | 5.10 |
| O=C(NC1CCCCC1)N[C@H]1CO[C@H]2[C@@H]1OC[C@@H]2Oc1cccc(Cl)c1 | 8.70 |
| O=C(Nc1ccc(Cl)c(Cl)c1)NC1COC2C(C=Cc3ccccc3)COC12 (stereo not shown) | 7.57 |

* * *

- tested system: recombinant sEH (Homo sapiens, UniProt P34913)
- protocol: biochemical screening assay for inhibition of soluble epoxide hydrolase (fluorometric, Phome substrate)
pIC50: −log10 of the molar value.
# pIC50 values compiled below
parameter: pIC50

| molecule | reported measurement |
| --- | --- |
| Cc1cc(CNC(=O)N[C@H]2CO[C@H]3[C@@H]2OC[C@@H]3Oc2cccnc2C)on1 | 5.63 |
| Cc1ncccc1O[C@H]1CO[C@H]2[C@@H]1OC[C@@H]2NC(=O)NCCc1ccc(S(C)(=O)=O)cc1 | 6.58 |
| Cc1ncccc1O[C@H]1CO[C@H]2[C@@H]1OC[C@@H]2NC(=O)NC1C(C)CCCC1C (stereo partly drawn) | 8.70 |
| Cc1ncccc1O[C@H]1CO[C@H]2[C@@H]1OC[C@@H]2NC(=O)NC1CCC(C(C)(C)O)CC1 (stereo partly drawn) | 7.92 |
| Cc1ncccc1O[C@H]1CO[C@H]2[C@@H]1OC[C@@H]2NC(=O)NC1CCC(C(C)(C)C)CC1 (stereo partly drawn) | 8.10 |
| Cc1ncccc1O[C@H]1CO[C@H]2[C@@H]1OC[C@@H]2NC(=O)NCC1C[C@@H]2CC[C@H]1O2 (stereo partly drawn) | 7.11 |
| Cc1ncccc1O[C@H]1CO[C@H]2[C@@H]1OC[C@@H]2NC(=O)NC1CCCC(C(F)(F)F)C1 (stereo partly drawn) | 9.00 |
| O=C(Nc1cccc(C(F)(F)F)c1)N[C@H]1CO[C@@H]2[C@@H](CCc3ccsc3)CO[C@@H]21 | 7.77 |
| O=C(NC1CCC(F)(F)CC1)N[C@H]1CO[C@H]2[C@@H]1OC[C@@H]2Oc1ccc(F)cc1 | 7.77 |
| Cc1ncccc1O[C@H]1CO[C@H]2[C@@H]1OC[C@@H]2NC(=O)NCC1COC(C)(C)O1 (stereo partly drawn) | 6.31 |
| Cc1ncccc1O[C@H]1CO[C@H]2[C@@H]1OC[C@@H]2NC(=O)N[C@@H]1C[C@H](C)CC[C@H]1C(C)C | 7.51 |
| C[C@H](NC(=O)N[C@H]1CO[C@H]2[C@@H]1OC[C@@H]2Oc1ccc(F)cc1)c1ccc(F)cc1 | 7.51 |
| Cc1ncccc1O[C@H]1CO[C@H]2[C@@H]1OC[C@@H]2NC(=O)NC1CC(=O)N(c2ccccc2)C1 (stereo partly drawn) | 7.19 |
| O=C(NC1CCCCC1)N[C@H]1CO[C@H]2[C@@H]1OC[C@@H]2Sc1ncc[nH]1 | 7.96 |
| Cc1ncccc1O[C@H]1CO[C@H]2[C@@H]1OC[C@@H]2NC(=O)NCc1ccc(Cl)s1 | 7.82 |

* * *

# pIC50 values compiled below
- tested system: recombinant sEH (Homo sapiens, UniProt P34913)
- Sequence (P34913 1-555): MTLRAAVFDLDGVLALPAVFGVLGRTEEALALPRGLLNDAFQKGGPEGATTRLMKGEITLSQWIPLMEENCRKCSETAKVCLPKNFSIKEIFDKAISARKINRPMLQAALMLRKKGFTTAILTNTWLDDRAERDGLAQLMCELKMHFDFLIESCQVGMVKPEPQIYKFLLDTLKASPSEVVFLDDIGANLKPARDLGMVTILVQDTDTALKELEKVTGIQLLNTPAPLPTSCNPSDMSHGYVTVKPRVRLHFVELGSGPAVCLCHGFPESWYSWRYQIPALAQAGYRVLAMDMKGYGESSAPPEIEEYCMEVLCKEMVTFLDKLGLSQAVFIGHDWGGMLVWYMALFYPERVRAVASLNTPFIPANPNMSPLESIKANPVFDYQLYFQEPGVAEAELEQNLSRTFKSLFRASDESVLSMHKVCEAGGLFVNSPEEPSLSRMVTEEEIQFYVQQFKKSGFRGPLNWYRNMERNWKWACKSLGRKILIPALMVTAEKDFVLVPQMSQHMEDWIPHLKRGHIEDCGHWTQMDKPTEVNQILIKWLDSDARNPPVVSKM
- protocol: biochemical screening assay for inhibition of soluble epoxide hydrolase (fluorometric, Phome substrate)
pIC50: −log10 of the molar value. Counter-ions that a name gives are not always drawn.
parameter: pIC50

| compound | tested system | reported measurement |
| --- | --- | --- |
| O=C(Nc1ccc(F)cc1)NC1COC2C(C=Cc3ccccc3)COC12 (centres unmarked) | recombinant sEH (Homo sapiens, UniProt P34913) | 7.01 |
| O=C(NC1CCCCC1)NC1COC2C(C#Cc3ccccc3)COC12 (centres unmarked) | recombinant sEH (Homo sapiens, UniProt P34913) | 7.92 |
| Cc1nc(S[C@H]2CO[C@H]3[C@@H]2OC[C@@H]3NC(=O)NC2CCCCC2)sc1C | recombinant sEH (Homo sapiens, UniProt P34913) | 9.00 |
| Cc1cnc(CNC(=O)N[C@H]2CO[C@H]3[C@@H]2OC[C@@H]3Oc2cccnc2C)cn1 | recombinant sEH (Homo sapiens, UniProt P34913) | 6.32 |
| O=C(N[C@H]1CO[C@H]2[C@@H]1OC[C@@H]2Oc1ccc(F)cc1)NC1(c2cccs2)CCOCC1 | recombinant sEH (Homo sapiens, UniProt P34913) | 5.35 |
| O=C(NCCc1ccccc1)N[C@H]1CO[C@@H]2[C@@H](CCc3ccsc3)CO[C@@H]21 | recombinant sEH (Homo sapiens, UniProt P34913) | 7.41 |
| O=C(NC1CCCCC1)N[C@H]1CO[C@H]2[C@@H]1OC[C@@H]2Oc1cccc(CNC2CC2)c1 [Example 128, trifluoroacetate] | recombinant sEH (Homo sapiens, UniProt P34913) | 8.00 |
| O=C(Nc1ccc(OC(F)(F)F)cc1)N[C@H]1CO[C@H]2[C@@H]1OC[C@@H]2/C=C\c1ccsc1 | recombinant sEH (Homo sapiens, UniProt P34913) | 7.96 |
